Assay: Antioxidant (DPPH) test
Settings: DPPH free radical scavenging
PARAMETER: IC50 (µM)
Supply the numeric figure in µM, leaving out any unit text.

| COMPOUND | UNIT SPEC | READOUT VALUE |
| --- | --- | --- |
| COc1cc(CC(C)=O)ccc1OC1CC(=O)N(Cc2ccccc2)C1=O (centres unmarked) [Compound 3] | µM | 3.31 |

Now turn to the next compound.
In: Fill blank: measured IC50 of the compound O=C1O[C@H]([C@@H](O)CO)C(O)=C1O [Ascorbic acid, reference compound] is ____.
Out: 1.44

###

Target: α-Amylase
Assay: Alpha-amylase test
Conditions: ± SEM
PARAMETER: IC50

In: Fill blank: measured IC50 of the compound COc1cc(CC(C)=O)ccc1OC1CC(=O)N(Cc2ccccc2)C1=O (stereo not shown) is ____.
Out: 15.4 µM
